# experimentalParameters: in n-propanol, 313.15 K
reportedEndpoint: solubility (mole fraction)

Request: Given O=C(Nc1ccncc1)c1cc(C(=O)Nc2ccncc2)cc(C(=O)Nc2ccncc2)c1 , state its recorded solubility (mole fraction).
Result: 0.000277

* * *

# experimentalParameters: in n-butanol, 313.15 K
reportedEndpoint: solubility (mole fraction)
Lab note: record the figure alone, no unit after it.

Request: Reported solubility (mole fraction), compound O=C(Nc1ccncc1)c1cc(C(=O)Nc2ccncc2)cc(C(=O)Nc2ccncc2)c1 : ____
Result: 0.000297

* * *

# experimentalParameters: in n-hexane, 293.15 K
reportedEndpoint: solubility (mole fraction)
Lab note: record the figure alone, no unit after it.

Request: Entry O=C(Nc1ccncc1)c1cc(C(=O)Nc2ccncc2)cc(C(=O)Nc2ccncc2)c1 has what solubility (mole fraction)?
Result: 2.45e-05
